The measurements presented in this section are drawn from ChEMBL document CHEMBL1136055.

target: GABA-A receptor; alpha-1/beta-3/gamma-2 (Homo sapiens) (UniProt P14867+P18507+P28472); assay: Modulatory effect on coapplication with GABA at human Gamma-aminobutyric acid A receptor alpha-1-beta-3-gamma-2 in Xenopus oocyte. Further: test concentration or dose not given here.
Property Name: percent modulation of GABA EC20 response (%)

These recorded examples may help you get a feel for the data.
- Test Smiles: "COc1ccc(-c2cc(-c3nc(C)cs3)c(=O)n(C)c2-c2ccnnc2)cc1"
  percent modulation of GABA EC20 response [%]: 7
- Test Smiles: "COc1ccc(-c2cc(-c3ccccc3)c(=O)n(C)c2-c2ccncc2)cc1"
  percent modulation of GABA EC20 response [%]: 45

A: COC(=O)c1cc(-c2ccc(OC)cc2)c(-c2ccc(N(C)C)cc2)n(C)c1=O
B: COc1ccc(-c2cc(-c3nc(C)cs3)c(=O)n(C)c2-c2cccnc2)cc1
Q: Between A and B , which one shows the smaller percent modulation of GABA EC20 response number? Lab note: record the label of whichever item you select.
Ans: B

###

biological target: GABA-A receptor; alpha-1/beta-3/gamma-2 (Homo sapiens, UniProt P14867+P18507+P28472); test: Inhibition of [3H]Ro-151788 binding to human GABA A receptor (alpha-1-beta-3-gamma-2) stably expressed in L(tk-) cells.; type: cell-based
Sequence (P14867 whole entry): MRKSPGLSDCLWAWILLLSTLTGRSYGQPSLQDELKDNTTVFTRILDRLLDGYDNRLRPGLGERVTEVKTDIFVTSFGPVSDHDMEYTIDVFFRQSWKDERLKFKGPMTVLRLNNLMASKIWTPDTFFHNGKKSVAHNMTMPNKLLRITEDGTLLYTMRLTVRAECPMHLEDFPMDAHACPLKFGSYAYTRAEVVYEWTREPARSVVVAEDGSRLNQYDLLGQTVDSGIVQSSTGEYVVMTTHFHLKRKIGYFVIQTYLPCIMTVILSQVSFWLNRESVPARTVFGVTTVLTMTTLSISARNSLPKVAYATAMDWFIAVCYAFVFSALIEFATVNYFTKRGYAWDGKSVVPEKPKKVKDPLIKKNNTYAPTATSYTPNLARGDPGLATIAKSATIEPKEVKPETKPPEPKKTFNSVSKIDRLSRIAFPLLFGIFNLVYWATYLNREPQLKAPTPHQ
Sequence (P18507 whole entry): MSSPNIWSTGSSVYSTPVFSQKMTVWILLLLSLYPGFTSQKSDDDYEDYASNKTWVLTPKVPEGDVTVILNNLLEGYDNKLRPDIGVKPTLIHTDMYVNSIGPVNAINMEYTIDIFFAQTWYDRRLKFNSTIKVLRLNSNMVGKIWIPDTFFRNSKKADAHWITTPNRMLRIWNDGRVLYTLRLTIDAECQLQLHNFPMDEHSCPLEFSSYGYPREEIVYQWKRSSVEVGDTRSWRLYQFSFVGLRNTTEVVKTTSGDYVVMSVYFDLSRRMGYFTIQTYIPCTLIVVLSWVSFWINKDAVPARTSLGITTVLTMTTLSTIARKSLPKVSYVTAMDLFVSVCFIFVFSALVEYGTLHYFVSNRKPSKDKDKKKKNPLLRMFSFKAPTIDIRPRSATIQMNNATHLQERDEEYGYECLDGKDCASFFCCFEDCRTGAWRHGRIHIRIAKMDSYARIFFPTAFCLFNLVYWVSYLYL
Sequence (P28472 whole entry): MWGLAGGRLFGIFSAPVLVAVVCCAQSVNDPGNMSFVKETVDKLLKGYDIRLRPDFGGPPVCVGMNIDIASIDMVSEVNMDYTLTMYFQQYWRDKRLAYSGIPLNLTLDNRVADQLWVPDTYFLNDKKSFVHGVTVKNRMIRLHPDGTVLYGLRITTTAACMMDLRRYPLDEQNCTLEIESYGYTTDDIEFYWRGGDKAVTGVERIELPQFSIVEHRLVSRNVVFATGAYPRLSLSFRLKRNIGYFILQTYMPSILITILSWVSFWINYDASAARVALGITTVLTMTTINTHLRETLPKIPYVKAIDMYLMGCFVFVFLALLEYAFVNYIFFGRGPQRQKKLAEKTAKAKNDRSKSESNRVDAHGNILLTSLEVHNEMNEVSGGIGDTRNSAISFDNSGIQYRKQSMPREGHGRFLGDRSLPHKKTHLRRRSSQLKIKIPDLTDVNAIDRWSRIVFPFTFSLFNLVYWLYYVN
pKi: −log10 of the molar value.
Property Name: pKi

- Test Smiles: "COC(=O)c1cc(-c2ccccc2)c(-c2ccc(N(C)C)cc2)n(C)c1=O"
  Measured Target: "GABA-A receptor; alpha-1/beta-3/gamma-2 (Homo sapiens, UniProt P14867+P18507+P28472)"
  pKi: 6.20
- Test Smiles: "COc1ccc(-c2cc(-c3ccccc3)c(=O)n(C)c2-c2ccncc2)cc1"
  Measured Target: "GABA-A receptor; alpha-1/beta-3/gamma-2 (Homo sapiens, UniProt P14867+P18507+P28472)"
  pKi: 7.08
- Test Smiles: "COc1ccc(-c2cc(-c3ccsc3)c(=O)n(C)c2-c2ccncc2)cc1"
  Measured Target: "GABA-A receptor; alpha-1/beta-3/gamma-2 (Homo sapiens, UniProt P14867+P18507+P28472)"
  pKi: 7.41
- Test Smiles: "COc1ccc(-c2cc(-c3cc(C)cs3)c(=O)n(C)c2-c2ccncc2)cc1"
  Measured Target: "GABA-A receptor; alpha-1/beta-3/gamma-2 (Homo sapiens, UniProt P14867+P18507+P28472)"
  pKi: 7.39
- Test Smiles: "COc1ccc(-c2cc(-c3nccs3)c(=O)n(C)c2-c2ccncc2)cc1"
  Measured Target: "GABA-A receptor; alpha-1/beta-3/gamma-2 (Homo sapiens, UniProt P14867+P18507+P28472)"
  pKi: 7.35

A: COc1ccc(-c2cc(-c3nc(C4CC4)cs3)c(=O)n(C)c2-c2ccncc2)cc1
B: COc1ccc(-c2cc(-c3nc(C)cs3)c(=O)n(C)c2-c2ccncc2)cc1
C: COC(=O)c1cc(-c2ccc(OC)cc2)c(-c2ccncc2)n(C)c1=O
D: COc1ccc(-c2cc(-c3noc(C4CC4)n3)c(=O)n(C)c2-c2ccncc2)cc1
Q: Sort the 4 compounds by pKi; largest first, smallest last. Field: ranking. Enter the labels in the order requested.
Ans: B, A, D, C
(B: 7.77, A: 7.51, D: 6.51, C: 5.99)
